All values here come from patent US20220016102A1.

The entries below are paired with their reported DC50.
- EXPERIMENTAL TARGET: ER protein (Homo sapiens)
- Sequence (P03372 1-595): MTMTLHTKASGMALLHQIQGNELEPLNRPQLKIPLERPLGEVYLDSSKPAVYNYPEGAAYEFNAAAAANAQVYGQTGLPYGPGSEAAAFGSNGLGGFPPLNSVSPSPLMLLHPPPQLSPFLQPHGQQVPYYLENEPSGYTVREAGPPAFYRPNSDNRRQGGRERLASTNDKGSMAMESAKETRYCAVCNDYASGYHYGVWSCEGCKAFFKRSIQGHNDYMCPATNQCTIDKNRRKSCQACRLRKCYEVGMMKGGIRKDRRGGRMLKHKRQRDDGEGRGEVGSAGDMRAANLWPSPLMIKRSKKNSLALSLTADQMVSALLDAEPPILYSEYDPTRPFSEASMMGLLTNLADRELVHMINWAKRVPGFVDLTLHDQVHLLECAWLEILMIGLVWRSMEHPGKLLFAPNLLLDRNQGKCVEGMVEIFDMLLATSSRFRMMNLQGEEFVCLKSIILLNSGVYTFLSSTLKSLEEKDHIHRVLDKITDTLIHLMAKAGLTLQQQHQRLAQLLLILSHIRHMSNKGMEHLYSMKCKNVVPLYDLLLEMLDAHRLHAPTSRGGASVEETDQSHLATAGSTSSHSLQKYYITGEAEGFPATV
- ASSAY DETAILS: Western blotting analysis of ER protein degradation in MCF-7 cell line
- Type: cell-based
- Set-up: western blotting detection of the level of intracellular ER protein; endogenous in cells
- CONDITION: MCF-7 cells, Western blot gray values vs DMSO control

Example results:
[
  {
    "COMPOUND STRING": "Cc1ncsc1-c1ccc(CNC(=O)[C@@H]2C[C@@H](O)CN2C(=O)[C@@H](NC(=O)COCCOCC(=O)NCCOc2ccc(C(=C(CCCl)c3ccccc3)c3ccc(O)cc3)cc2)C(C)(C)C)cc1",
    "DC50": "10 nM"
  },
  {
    "COMPOUND STRING": "Cc1ncsc1-c1ccc(CNC(=O)[C@@H]2C[C@@H](O)CN2C(=O)[C@@H](NC(=O)CCCCCCCC(=O)NCCOc2ccc(C(=C(CCCl)c3ccccc3)c3ccc(O)cc3)cc2)C(C)(C)C)cc1",
    "DC50": "< 10 nM"
  },
  {
    "COMPOUND STRING": "Cc1ncsc1-c1ccc(CNC(=O)[C@@H]2C[C@@H](O)CN2C(=O)[C@@H](NC(=O)CCOCCOCCC(=O)NCCOc2ccc(C(=C(CCCl)c3ccccc3)c3ccc(O)cc3)cc2)C(C)(C)C)cc1",
    "DC50": "< 100 nM"
  },
  {
    "COMPOUND STRING": "Cc1ncsc1-c1ccc(CNC(=O)[C@@H]2C[C@@H](O)CN2C(=O)[C@@H](NC(=O)CCOCCOCCOCCC(=O)NCCOc2ccc(C(=C(CCCl)c3ccccc3)c3ccc(O)cc3)cc2)C(C)(C)C)cc1",
    "DC50": "< 50 nM"
  }
]

# evaluate next
## Input Record request: DC50 value, item Cc1ncsc1-c1ccc(CNC(=O)[C@@H]2C[C@@H](O)CN2C(=O)[C@@H](NC(=O)CCCC(=O)NCCOc2ccc(C(=C(CCCl)c3ccccc3)c3ccc(O)cc3)cc2)C(C)(C)C)cc1
## Output < 100 nM
